Quick reference for MIC among some compounds
Test system: Staphylococcus aureus
Experiment: Antibacterial activity against methicillin-susceptible, vancomycin-intermediate Staphylococcus aureus 505 after 50 passages by agar dilution method
Type: functional

Sample records with MIC:
{"columns": ["compound", "study.target", "measured.result"],
 "data": [
  ["COc1cc(Cc2cnc(N)nc2N)cc(/C=C/C(=O)N2N=Cc3ccccc3C2c2cnc(N3CCOCC3)nc2)c1OC (stereo unspecified)", "Staphylococcus aureus", "2 µg/mL"],
  ["CN[C@H](CC(C)C)C(=O)N[C@H]1C(=O)N[C@@H](CC(N)=O)C(=O)N[C@H]2C(=O)N[C@H]3C(=O)N[C@H](C(=O)N[C@H](C(=O)O)c4cc(O)cc(O)c4-c4cc3ccc4O)[C@H](O)c3ccc(c(Cl)c3)Oc3cc2cc(c3O[C@@H]2O[C@H](CO)[C@@H](O)[C@H](O)[C@H]2O[C@H]2C[C@](C)(N)[C@H](O)[C@H](C)O2)Oc2ccc(cc2Cl)[C@H]1O [VANCOMYCIN]", "Staphylococcus aureus", "8 µg/mL"],
  ["COc1cc(Cc2cnc(N)nc2N)cc(/C=C/C(=O)N2N=Cc3ccccc3C2c2cnc(N(C)C)nc2)c1OC (stereo unspecified)", "Staphylococcus aureus", "8 µg/mL"],
  ["CC(=O)NC[C@H]1CN(c2ccc(N3CCOCC3)c(F)c2)C(=O)O1 [LINEZOLID]", "Staphylococcus aureus", "16 µg/mL"],
  ["COc1ncc(C2c3ccccc3C=NN2C(=O)/C=C/c2cc(Cc3cnc(N)nc3N)cc(OC)c2OC)cn1 (stereo unspecified)", "Staphylococcus aureus", "1 µg/mL"]
]}

Okay, next one:
Request: Form field: reported MIC of CN(C)c1ccc(O)c2c1C[C@H]1C[C@H]3[C@H](N(C)C)C(O)=C(C(N)=O)C(=O)[C@@]3(O)C(O)=C1C2=O [MINOCYCLINE]
Result: 1 µg/mL
